Below, each entry is listed with its recorded yeast fitness.
B1: tRNA (parent)
chain: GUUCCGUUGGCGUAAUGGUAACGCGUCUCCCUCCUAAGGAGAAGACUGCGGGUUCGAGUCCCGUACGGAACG

Variants of: B1
assay remarks: yeast fitness relative to wild type (ratio to wild type); higher = fitter; tRNA-Arg(CCU), competitive growth, 37 C, YPD
Fewer inactive variants are shown than the library holds.
Lab note: jot down the number only; don't add units.

Prompt: Determine its reported yeast fitness: C22G C27U C66U
Response: 0.701

Prompt: Determine its reported yeast fitness: C61A C62A
Response: 0.603

Prompt: Determine its reported yeast fitness: C27G U35A A45U G67A
Response: 0.612
